- tested.target: Aβ42 (Homo sapiens, UniProt P05067)
- Sequence (P05067 672-713): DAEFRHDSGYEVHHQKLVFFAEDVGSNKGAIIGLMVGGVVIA
- test.description: Th-T (thioflavin-T) assay of Aβ42 aggregation
- Type: biochemical
- test.parameters: time-course reading M103; Supplementary Fig. 47 source data
readout: Th-T fluorescence, mean of three wells
Give a plain numeric answer without units written out.

Entry under review: C=C1CCC2C(C)(CCC=C(C)C)C(O)CCC2(C)C1Cc1c(OC)oc(CO)c(C(=O)OC)c1=O (stereo not shown) [Compound 13] . Reported Th-T fluorescence, mean of three wells?
1.041

Fill in: Th-T fluorescence, mean of three wells of C=C1CC[C@H]2[C@]3(C)C[C@@H](C=C(C)C)O[C@H]3CC[C@]2(C)[C@@H]1Cc1c(O)c(C)c(C)oc1=O [Compound 5, subglutinol A] is ___
2.705

Returns the measured Th-T fluorescence, mean of three wells for the input compound. Input: C=C1CC[C@H]2[C@]3(C)C[C@H](C=C(C)C)O[C@H]3CC[C@]2(C)[C@@H]1Cc1c(O)c(C)c(C)oc1=O [Compound 6, subglutinol B]
3.088

Give the measured Th-T fluorescence, mean of three wells of C=C1CCC2C(C)(CCC=C(C)C)C(O)CCC2(C)C1Cc1c(O)c(C)c(C)oc1=O (stereo not shown) [Compound 4] .
2.763

# Th-T fluorescence, mean of three wells lookup, item C=C1CCC2C3(C)CC(C=C(C)C)OC3CCC2(C)C1Cc1c(OC)oc(C)c(C)c1=O (stereo not shown) [Compound 23]
3.8886

What measured Th-T fluorescence, mean of three wells goes with C=C1CCC2C(C)(CC(=O)C=C(C)C)C(O)CCC2(C)C1Cc1c(OC)oc(CO)c(C)c1=O (stereo not shown) [Compound 19] ?
3.645

I would be grateful if you could share the reported Th-T fluorescence, mean of three wells for C=C1CC[C@H]2[C@]3(C)C[C@@H](C=C(C)C)O[C@H]3CC[C@]2(C)[C@@H]1Cc1c(OC)oc(CO)c(C)c1=O [Compound 17] .
3.686

###

For each of the molecules below, state its Th-T assay signal, mean of three wells (Fig. 7a).
- tested.target: UniProt:P05067
- test.description: Th-T (thioflavin-T) assay of Aβ42 aggregation
- Assay type: biochemical
- test.parameters: column suffix _10; reading M16
Response field accepts a number only; no unit should be typed.

I am curious: what Th-T assay signal, mean of three wells (Fig. 7a) value has been reported for C=C1CCC2C(C)(CCC=C(C)C)C(O)CCC2(C)C1Cc1c(OC)oc(CO)c(C(=O)OC)c1=O (centres unmarked) ?
0.2305

Which Th-T assay signal, mean of three wells (Fig. 7a) reading was recorded for the molecule C=C1CCC2C(C)(CCC=C(C)C)C(O)CCC2(C)C1Cc1c(OC)oc(CO)c(C)c1=O (centres unmarked) ?
2.245

Data request, read-out Th-T assay signal, mean of three wells (Fig. 7a), for C=C1CC[C@@H]2[C@](C)(CC[C@H]3O[C@H](C=C(C)C)C[C@@]23C)[C@@H]1Cc1c(OC)oc(CO)c(C)c1=O
2.635

Please give the measured Th-T assay signal, mean of three wells (Fig. 7a) for this molecule: C=C1CCC2C(C)(CCC=C(C)C)C(O)CCC2(C)C1Cc1c(OC)oc(C)c(C(=O)OC)c1=O (centres unmarked)
1.433

Which Th-T assay signal, mean of three wells (Fig. 7a) is listed for C=C1CC[C@@H]2[C@](C)(CC[C@H]3O[C@H](C=C(C)C)C[C@@]23C)[C@@H]1Cc1c(OC)oc(CO)c(C(=O)OC)c1=O ?
0.2237

###

Kindly supply the reported Th-T fluorescence of Aβ42 (sheet Fig. 7a), mean of three wells values for the records listed here.
- tested.target: Aβ42 (Homo sapiens, UniProt P05067)
- test.description: Th-T (thioflavin-T) assay of Aβ42 aggregation
- Format: biochemical
- test.parameters: head suffix _20 (concentration 20); reading M66
Give a plain numeric answer without units written out.

Quick check: Th-T fluorescence of Aβ42 (sheet Fig. 7a), mean of three wells on Aβ42 (Homo sapiens, UniProt P05067), item C=C1CCC2C(C)(CCC=C(C)C)C(O)CCC2(C)C1Cc1c(OC)oc(CO)c(C(=O)OC)c1=O (centres unmarked) ?
1.05

What Th-T fluorescence of Aβ42 (sheet Fig. 7a), mean of three wells appears in the records for this molecule with Aβ42 (Homo sapiens, UniProt P05067)? C=C1CCC2C(C)(CCC=C(C)C)C(O)CCC2(C)C1Cc1c(OC)oc(C)c(C(=O)OC)c1=O (centres unmarked)
1.992

Write down the reported Th-T fluorescence of Aβ42 (sheet Fig. 7a), mean of three wells of C=C1CCC2C(C)(CCC=C(C)C)C(O)CCC2(C)C1Cc1c(OC)oc(CO)c(C)c1=O (centres unmarked) , test system: Aβ42 (Homo sapiens, UniProt P05067).
2.113

So what Th-T fluorescence of Aβ42 (sheet Fig. 7a), mean of three wells did C=C1CC[C@@H]2[C@](C)(CC[C@H]3O[C@H](C=C(C)C)C[C@@]23C)[C@@H]1Cc1c(OC)oc(CO)c(C)c1=O get with Aβ42 (Homo sapiens, UniProt P05067)?
3.432

Record lookup: for Aβ42 (Homo sapiens, UniProt P05067), what Th-T fluorescence of Aβ42 (sheet Fig. 7a), mean of three wells belongs to C=C1CC[C@@H]2[C@](C)(CC[C@H]3O[C@H](C=C(C)C)C[C@@]23C)[C@@H]1Cc1c(OC)oc(CO)c(C(=O)OC)c1=O ?
0.2535

###

- System: MCF-7 cells
- test.description: cell cytotoxic effects against MCF-7 cells (72 h), A490
- Type: cell-based, human
- test.parameters: MCF-7, 72 h, 0.1 µM (DMSO 0.002%); control 1.064
readout: A490 ave
// response body must contain only the number

Could you tell me which A490 ave is on file for O=c1[nH]cc(F)c(=O)[nH]1 [Compound 5-FU, 5-fluorouracil, reference compound] ?
0.803

Endpoint output: A490 ave of C=C1CCC2C(C)(CCC=C(C)C)C(O)CCC2(C)C1Cc1c(OC)oc(C)c(C)c1=O (stereo not drawn) [Compound 15, viridoxin A hydrolysate] . Value?
0.873

Please give the measured A490 ave for this compound: C=C1CCC2C3(C)CC(C=C(C)C)OC3CCC2(C)C1Cc1c(OC)oc(C)c(C)c1=O (stereo not drawn)
0.664

Name the reported A490 ave value associated with the compound C=C1CC[C@@H]2[C@](C)(CC[C@H]3O[C@H](C=C(C)C)C[C@@]23C)[C@@H]1Cc1c(OC)oc(CO)c(C(=O)OC)c1=O
1.213

Please give the measured A490 ave for this compound: C=C1CCC2C(C)(CCC=C(C)C)C(O)CCC2(C)C1Cc1c(OC)oc(C)c(C)c1=O (stereo not drawn) [Compound 11]
0.981

I have this compound here, C=C1CC[C@H]2[C@]3(C)C[C@H](C=C(C)C)O[C@H]3CC[C@]2(C)[C@@H]1Cc1c(OC)oc(C)c(C)c1=O , and I need its recorded A490 ave.
0.680

###

- tested.target: UniProtKB P05067
- test.description: Th-T (thioflavin-T) assay of Aβ42 aggregation
- Type: biochemical
- test.parameters: compound at 10; reading M43 of time course
readout: Th-T fluorescence, mean of three wells
Could you keep your reply to the number by itself?

What value of measured Th-T fluorescence, mean of three wells is listed for C=C1CC[C@@H]2[C@](C)(CC[C@H]3O[C@H](C=C(C)C)C[C@@]23C)[C@@H]1Cc1c(OC)oc(CO)c(C(=O)OC)c1=O [Compound 21] ?
0.2567

Could you tell me which Th-T fluorescence, mean of three wells is on file for C=C1CCC2C(C)(CCC=C(C)C)C(O)CCC2(C)C1Cc1c(OC)oc(CO)c(C)c1=O (centres unmarked) [Compound 12] ?
3.271

Form field: reported Th-T fluorescence, mean of three wells of C=C1CC[C@@H]2[C@](C)(CC[C@H]3O[C@H](C=C(C)C)C[C@@]23C)[C@@H]1Cc1c(OC)oc(CO)c(C)c1=O [Compound 20]
3.47

Reported Th-T fluorescence, mean of three wells, molecule C=C1CCC2C(C)(CCC=C(C)C)C(O)CCC2(C)C1Cc1c(OC)oc(CO)c(C(=O)OC)c1=O (centres unmarked) [Compound 13] : ____
1.3329

Please give the measured Th-T fluorescence, mean of three wells for this molecule: C=C1CCC2C(C)(CCC=C(C)C)C(O)CCC2(C)C1Cc1c(OC)oc(C)c(C(=O)OC)c1=O (centres unmarked) [Compound 14]
2.483

###

- System: l(2)mbn cells
- test.description: cytotoxicity in Drosophila l(2)mbn cells
- Assay type: cell-based
- test.parameters: 10 µM, replicate 1, relative to DMSO 1%
For each entry below, report its % viability, viability 1 value.

Given the molecule C=C1CCC2C(C)(CCC=C(C)C)C(O)CCC2(C)C1Cc1c(OC)oc(C)c(C)c1=O (stereo not shown) [Compound 11] , what is its reported % viability, viability 1?
1.715%

Which value of % viability, viability 1 has been reported for C=C1CCC2C(C)(CCC=C(C)C)C(O)CCC2(C)C1Cc1c(OC)oc(C)c(C)c1=O (stereo not shown) [Compound 15, viridoxin A hydrolysate] in the records?
5.78%

Quick check: % viability, viability 1 of C=C1CCC2C(C)(CCC=C(C)C)C(O)CCC2(C)C1Cc1c(O)c(C)c(C)oc1=O (stereo not shown) [Compound 4] ?
14.3481%

Can you look up the measured % viability, viability 1 of C=C1CCC2C(C)(CCC=C(C)C)C(O)CCC2(C)C1Cc1c(O)c(C)c(C)oc1=O (stereo not shown) [Compound 9, higginsianin B] for me?
2.255%
